Target: HDM2 (Homo sapiens, UniProt Q00987)
Construct: Thioredoxin (N); made in house; host or cells: E. coli strain BL21(DE3)Rosetta
Sequence (Q00987 17-125): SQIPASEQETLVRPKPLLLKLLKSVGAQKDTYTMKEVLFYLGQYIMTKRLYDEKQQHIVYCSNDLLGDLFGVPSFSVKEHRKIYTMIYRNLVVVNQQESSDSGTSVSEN
Assay: FRET assay (HDM2 inhibition; method not described in this part)
Type: binding
Settings: Table 1
Measurement kind: log10(IC50) (log10 of the value in nM)
Lab note - IC50 converted to log10 from values in nM.

// known answers, use as guide
[[record]]
compound = "C[C@@H](Nc1nc(C(=O)O)nc2nc(-c3cc(N(C)C)ccn3)n(Cc3ccc(C(F)(F)F)cc3)c12)C1CCC1"
measurement_kind = "log10(IC50)"
measurement = 1.21

[[record]]
compound = "CCOc1ccnc(-c2nc3nc(C(=O)O)nc(N[C@H](C)C4CCC4)c3n2Cc2ccc(C(F)(F)F)cc2)c1"
measurement_kind = "log10(IC50)"
measurement = 1.07

[[record]]
compound = "C[C@@H](Nc1nc(C(=O)O)nc2nc(-c3cc(C4CCC4)ccn3)n(Cc3ccc(C(F)(F)F)c(F)c3)c12)C1CCC1"
measurement_kind = "log10(IC50)"
measurement = 0.97

[[record]]
compound = "Cc1ccc(C)c(-c2nc3nc(C(=O)O)nc(N[C@H](C)C4CCC4)c3n2Cc2ccc(C(F)(F)F)cc2)c1"
measurement_kind = "log10(IC50)"
measurement = 1.17


For the 7 compounds below, give their log10(IC50) values.
1. Cc1ccc2cc(-c3nc4nc(C(=O)O)nc(N[C@H](C)C5CCC5)c4n3Cc3ccc(C(F)(F)F)cc3)ccc2n1
2. CCc1ccc(OCOC)c(-c2nc3nc(C(=O)O)nc(N[C@H](C)C4CCC4)c3n2Cc2ccc(C(F)(F)F)cc2)c1
3. COc1ccc(C)nc1-c1nc2nc(C(=O)O)nc(N[C@H](C)C3CCC3)c2n1Cc1ccc(C(F)(F)F)cc1
4. C[C@@H](Nc1nc(C(=O)O)nc2nc(-c3cc(-c4cccs4)ccn3)n(Cc3ccc(C(F)(F)F)cc3)c12)C1CCC1
5. C[C@@H](Nc1nc(C(=O)O)nc2nc(-c3cccc(Nc4ccccc4)c3)n(Cc3ccc(C(F)(F)F)cc3)c12)C1CCC1
6. COc1ccc(-c2nc3nc(C(=O)O)nc(N[C@H](C)C4CCC4)c3n2Cc2ccc(C(F)(F)F)cc2)nc1
7. Cc1cc2ncccc2cc1-c1nc2nc(C(=O)O)nc(N[C@H](C)C3CC3)c2n1Cc1ccc(C(F)(F)F)cc1

Response:
[2.11, 1.36, 1.12, 0.77, 1.88, 1.38, 3.03]

For the 2 compounds below, give their log10(IC50) values.
1. C[C@@H](Nc1nc(C(=O)O)nc2nc(-c3cc(C(C)(C)O)ccn3)n(Cc3ccc(C(F)(F)F)cc3)c12)C1CCC1
2. C[C@@H](Nc1nc(C(=O)O)nc2nc(-c3ccc(C4OCCO4)cn3)n(Cc3ccc(C(F)(F)F)cc3)c12)C1CCC1

Response:
0.97
1.79

For the 4 compounds below, give their log10(IC50) values.
1. CCc1ccnc(-c2nc3nc(C(=O)O)nc(N[C@H](C)C4CCC4)c3n2Cc2ccc(C(F)(F)F)cc2)c1
2. C[C@@H](Nc1nc(C(=O)O)nc2nc(-c3cc(C4CC4)ccn3)n(Cc3ccc(C(F)(F)F)c(F)c3)c12)C1CCC1
3. COc1ccnc(-c2nc3nc(C(=O)O)nc(N[C@H](C)C4CCC4)c3n2Cc2ccc(C(F)(F)F)cc2)c1C
4. CCC(C)c1ccnc(-c2nc3nc(C(=O)O)nc(N[C@H](C)C4CCC4)c3n2Cc2ccc(C(F)(F)F)cc2)c1 (single isomer, unassigned) [Example 1.15]

Response:
1.63
1.30
1.86
0.52
